Values from ChEMBL document CHEMBL4138141

Assay Text: Metabolic stability in human liver microsomes assessed as parent compound remaining at […] incubated for 5 mins measured up to 60 mins by LC-MS/MS analysis
Format: ADME, microsome
Condition: read-out: Stability
Outcome Measure: remaining at 60 min

Dear colleague, I am looking for the recorded remaining at 60 min of the following compound: Cn1c(=O)cc(N2CCC[C@@H](N)C2)n(Cc2cc(F)ccc2C#N)c1=O > 80%

====

Assay Text: Apparent volume of distribution during terminal phase in Sprague-Dawley rat at 25 mg/kg, po or 5 mg/kg, iv administered as single dose by LC-MS/MS analysis
Format: ADME, organism-based
Condition: in vivo, read-out: Vz/F
Readings of Vd/F for the listed compounds
Return type: number; implicit unit L/kg.

// solved cases for Vd/F follow
[
  {
    "Compound Smiles": "N#Cc1ccc(F)cc1Cn1c(N2CCC[C@@H](N)C2)nc2c(-c3ccsc3)c[nH]c2c1=O",
    "Vd/F / L/kg": 104
  },
  {
    "Compound Smiles": "N#Cc1ccc(F)cc1Cn1c(N2CCC[C@@H](N)C2)nc2cc[nH]c2c1=O",
    "Vd/F / L/kg": 106
  }
]

Kindly review the next compound as well.
Fill in the blank: the reported Vd/F of Cn1c(=O)cc(N2CCC[C@@H](N)C2)n(Cc2cc(F)ccc2C#N)c1=O is ____. 48.2
